System: aminoacylase of the present invention (Nε-acyl-L-lysine-specific aminoacylase)
ASSAY_NOTES: Effects of metal ions on hydrolysis activity of enzyme dialyzed against 0-phenanthroline solution
Assay type: biochemical, Streptomyces mobaraensis
EXPERIMENTAL_CONTEXT: final concentration 0.1 mM; hydrolysis activity with nothing added = 100
compounds and their reported Relative activity (%)
Reply with just the number (in %).

Reference set, count: 3
>>> print(df.to_string())
           molecular_string     attribute_measured  reported
0                [Cl-].[K+]  Relative activity (%)     110.2
1  O=S(=O)([O-])[O-].[Mg+2]  Relative activity (%)     121.1
2  O=S(=O)([O-])[O-].[Cu+2]  Relative activity (%)      67.2

Qu. For O=S(=O)([O-])[O-].[Mn+2] , what is its reported Relative activity (%)?
Ans. 114.1

Qu. Would you kindly repeat that for O=S(=O)([O-])[O-].[Zn+2] ?
Ans. 103.3

Qu. Would you kindly repeat that for [Ca+2].[Cl-].[Cl-] ?
Ans. 110.3

Qu. Would you kindly repeat that for O=S(=O)([O-])[O-].[Fe+2] ?
Ans. 85.3

Sourced from patent US7888079B2
